These entries and their values trace back to the supplement of paper PMC10567573.

B1: NET1 (parent)
chain: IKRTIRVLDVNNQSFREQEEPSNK

Variants of: B1
Experiment: protein stability index of a GFP-peptide fusion (GPS, HEK-293T) (PSI 1-6); higher = more stable;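 note: lentivirally expressed fusions sorted by FACS into six bins by GFP to DsRed ratio, PSI derived from sequencing read proportions per bin multiplied by bin number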
Conditions: c terminus: a fixed tail appended
Note: every record was labeled by where its protein stability index sits among bottom bin: < 3; middle bin: ≥ 3 and < 4; top bin: ≥ 4

[
  {
    "Sequence variant": "T4F",
    "Label": "bottom bin"
  },
  {
    "Sequence variant": "L8M",
    "Label": "middle bin"
  },
  {
    "Sequence variant": "I5C",
    "Label": "top bin"
  },
  {
    "Sequence variant": "E19F",
    "Label": "bottom bin"
  },
  {
    "Sequence variant": "T4G",
    "Label": "middle bin"
  },
  {
    "Sequence variant": "E19H",
    "Label": "bottom bin"
  },
  {
    "Sequence variant": "K2N",
    "Label": "top bin"
  },
  {
    "Sequence variant": "R6I",
    "Label": "bottom bin"
  },
  {
    "Sequence variant": "V7H",
    "Label": "top bin"
  },
  {
    "Sequence variant": "L8G",
    "Label": "top bin"
  },
  {
    "Sequence variant": "E19M",
    "Label": "middle bin"
  },
  {
    "Sequence variant": "V10P",
    "Label": "middle bin"
  },
  {
    "Sequence variant": "E19Y",
    "Label": "bottom bin"
  },
  {
    "Sequence variant": "F15R",
    "Label": "top bin"
  },
  {
    "Sequence variant": "E20K",
    "Label": "bottom bin"
  },
  {
    "Sequence variant": "V10N",
    "Label": "top bin"
  },
  {
    "Sequence variant": "E19C",
    "Label": "bottom bin"
  },
  {
    "Sequence variant": "N11I",
    "Label": "bottom bin"
  },
  {
    "Sequence variant": "P21G",
    "Label": "bottom bin"
  },
  {
    "Sequence variant": "V10S",
    "Label": "middle bin"
  },
  {
    "Sequence variant": "S14L",
    "Label": "bottom bin"
  },
  {
    "Sequence variant": "L8A",
    "Label": "top bin"
  },
  {
    "Sequence variant": "S14E",
    "Label": "middle bin"
  },
  {
    "Sequence variant": "I5K",
    "Label": "top bin"
  },
  {
    "Sequence variant": "R16C",
    "Label": "middle bin"
  },
  {
    "Sequence variant": "N12I",
    "Label": "middle bin"
  },
  {
    "Sequence variant": "S22T",
    "Label": "middle bin"
  },
  {
    "Sequence variant": "K2Q",
    "Label": "top bin"
  },
  {
    "Sequence variant": "K2D",
    "Label": "top bin"
  },
  {
    "Sequence variant": "K2Y",
    "Label": "bottom bin"
  },
  {
    "Sequence variant": "I5A",
    "Label": "top bin"
  },
  {
    "Sequence variant": "K24D",
    "Label": "middle bin"
  },
  {
    "Sequence variant": "E20P",
    "Label": "middle bin"
  },
  {
    "Sequence variant": "Q13V",
    "Label": "middle bin"
  },
  {
    "Sequence variant": "N12S",
    "Label": "bottom bin"
  },
  {
    "Sequence variant": "N12A",
    "Label": "middle bin"
  },
  {
    "Sequence variant": "S14P",
    "Label": "bottom bin"
  },
  {
    "Sequence variant": "L8S",
    "Label": "top bin"
  },
  {
    "Sequence variant": "F15N",
    "Label": "middle bin"
  },
  {
    "Sequence variant": "V7P",
    "Label": "top bin"
  },
  {
    "Sequence variant": "I1A",
    "Label": "middle bin"
  },
  {
    "Sequence variant": "T4K",
    "Label": "middle bin"
  },
  {
    "Sequence variant": "T4I",
    "Label": "bottom bin"
  },
  {
    "Sequence variant": "N12R",
    "Label": "middle bin"
  },
  {
    "Sequence variant": "S14T",
    "Label": "middle bin"
  },
  {
    "Sequence variant": "R6L",
    "Label": "bottom bin"
  },
  {
    "Sequence variant": "V7Q",
    "Label": "top bin"
  },
  {
    "Sequence variant": "S22R",
    "Label": "middle bin"
  },
  {
    "Sequence variant": "E17I",
    "Label": "middle bin"
  },
  {
    "Sequence variant": "I5H",
    "Label": "top bin"
  },
  {
    "Sequence variant": "D9F",
    "Label": "bottom bin"
  },
  {
    "Sequence variant": "E20G",
    "Label": "middle bin"
  },
  {
    "Sequence variant": "K24Y",
    "Label": "middle bin"
  },
  {
    "Sequence variant": "N11E",
    "Label": "top bin"
  },
  {
    "Sequence variant": "P21K",
    "Label": "top bin"
  },
  {
    "Sequence variant": "K2W",
    "Label": "middle bin"
  }
]
